FYI, the data here is from BindingDB's records for doi:10.1016/j.bmcl.2006.06.076.

Assay: Agonist activity at rat PGI2 receptor assessed as inhibition of ADP-induced platelet aggregation
Here, each record is paired with measured IC50 data.
Endpoint label: IC50 (nM)

molecule="O=C(O)COc1cccc(CC2CCCC=C2c2nc(-c3ccccc3)c(-c3ccccc3)o2)c1 (stereo not drawn)" endpoint_label=IC50 scale_unit=nM relation_symbol== recorded_number=1200
molecule=O=C(O)COc1cccc(CN2CCC[C@@H]2c2nc(-c3ccccc3)c(-c3ccccc3)o2)c1 endpoint_label=IC50 scale_unit=nM relation_symbol== recorded_number=700
molecule=O=C(O)COc1cccc(CN2CCC[C@H]2c2nc(-c3ccccc3)c(-c3ccccc3)o2)c1 endpoint_label=IC50 scale_unit=nM relation_symbol=> recorded_number=10000
